STUDY TARGET: SbnF (Staphylococcus aureus)
Construct: 6xHis; made in house; host or cells: E. coli BL21 (DE3)
Sequence (Q2G1M8 25-616 limits assumed): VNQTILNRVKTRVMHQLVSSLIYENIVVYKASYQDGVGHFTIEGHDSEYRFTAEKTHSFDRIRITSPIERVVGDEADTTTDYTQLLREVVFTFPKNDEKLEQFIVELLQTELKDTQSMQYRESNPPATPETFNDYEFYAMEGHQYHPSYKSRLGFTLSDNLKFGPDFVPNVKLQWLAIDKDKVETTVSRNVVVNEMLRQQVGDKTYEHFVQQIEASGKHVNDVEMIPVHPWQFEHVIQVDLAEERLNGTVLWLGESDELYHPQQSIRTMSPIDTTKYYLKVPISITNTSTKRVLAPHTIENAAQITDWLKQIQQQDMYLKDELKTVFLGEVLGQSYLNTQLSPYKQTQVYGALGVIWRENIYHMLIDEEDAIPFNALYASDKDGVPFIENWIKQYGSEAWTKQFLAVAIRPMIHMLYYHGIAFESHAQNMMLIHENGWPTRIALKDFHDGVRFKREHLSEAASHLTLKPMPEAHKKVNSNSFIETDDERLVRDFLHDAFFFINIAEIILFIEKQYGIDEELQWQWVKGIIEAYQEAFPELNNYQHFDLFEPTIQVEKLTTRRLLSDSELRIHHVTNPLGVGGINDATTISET
PROTOCOL DESCRIPTION: hydroxylamine trapping (hydroxamate formation) assay, SbnF
Assay type: biochemical, S. aureus
EXPERIMENTAL CONTEXT: 5 μM enzyme
MEASURED QUANTITY: activity of SbnF towards carboxylic acid substrate

O=C(O)CCC(=O)C(=O)O [α-KG, α-ketoglutarate]; not
